ASSAYED_SYSTEM: YWHAZ (UniProt P63104)
Sequence (P63104 whole entry, looked up): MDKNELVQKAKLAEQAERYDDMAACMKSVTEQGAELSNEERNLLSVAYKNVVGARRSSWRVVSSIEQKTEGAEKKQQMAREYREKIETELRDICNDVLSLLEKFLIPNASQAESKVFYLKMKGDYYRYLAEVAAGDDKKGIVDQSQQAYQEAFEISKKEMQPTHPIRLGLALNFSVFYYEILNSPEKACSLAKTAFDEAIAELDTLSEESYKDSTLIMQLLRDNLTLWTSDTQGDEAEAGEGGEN
TEST_DETAILS: log2 fold change, soluble protein after heating vs DMSO (PISA); higher = thermal stabilisation; K562 cells, 10 uM, 30 min; active = over 0.2 and 3.5 SD of the protein, either way, in both replicates (recomputed)
Of roughly 7,900 targets only a part is listed; those with a hit were picked by preference. About 0.6% of all pairs of compound and target were hits.
MEASURE: log2 fold change

Use the examples below as a reference point.
>>> print(df.to_string())
                                   compound             result
0  CCN(CC)Cc1ccc2cc(COC(=O)Nc3ccc(C(=O)NO)cc3)ccc2c1  -0.001 (inactive)
1  Cc1ccc(NC(=O)c2cccc(C(C)(C)C#N)c2)cc1Nc1ccc2ncn(C)c(=O)c2c1   0.025 (inactive)
2  CC(C)N(C[C@H]1O[C@@H](n2cnc3c(N)ncnc32)[C@H](O)[C@@H]1O)[C@H]1C[C@@H](CCc2nc3cc(C(C)(C)C)ccc3[nH]2)C1  -0.026 (inactive)
3  Oc1cc(-c2nc(-c3ccccc3)[nH]c2-c2ccncc2)ccc1Cl   0.096 (inactive)
4  COC(=O)[C@H](CCSC)NC(=O)c1ccc(NC[C@@H](N)CS)cc1-c1ccccc1  -0.002 (inactive)
5  CC(C)(C)Cn1c(N)nc2ccc(-c3[nH]c(C(C)(C)C)nc3-c3ccc(F)cc3)nc21   0.145 (inactive)

Would you kindly look at the next entry?
Problem: For YWHAZ (UniProt P63104), provide log2 fold change of CN(CCOc1ccc(C[C@@H]2SC(=O)NC2=O)cc1)c1ccccn1 (racemic) please.
Result: 0.008 (inactive)

====

ASSAYED_SYSTEM: ZC3H18 (UniProt Q86VM9)
Sequence (Q86VM9 whole entry, looked up): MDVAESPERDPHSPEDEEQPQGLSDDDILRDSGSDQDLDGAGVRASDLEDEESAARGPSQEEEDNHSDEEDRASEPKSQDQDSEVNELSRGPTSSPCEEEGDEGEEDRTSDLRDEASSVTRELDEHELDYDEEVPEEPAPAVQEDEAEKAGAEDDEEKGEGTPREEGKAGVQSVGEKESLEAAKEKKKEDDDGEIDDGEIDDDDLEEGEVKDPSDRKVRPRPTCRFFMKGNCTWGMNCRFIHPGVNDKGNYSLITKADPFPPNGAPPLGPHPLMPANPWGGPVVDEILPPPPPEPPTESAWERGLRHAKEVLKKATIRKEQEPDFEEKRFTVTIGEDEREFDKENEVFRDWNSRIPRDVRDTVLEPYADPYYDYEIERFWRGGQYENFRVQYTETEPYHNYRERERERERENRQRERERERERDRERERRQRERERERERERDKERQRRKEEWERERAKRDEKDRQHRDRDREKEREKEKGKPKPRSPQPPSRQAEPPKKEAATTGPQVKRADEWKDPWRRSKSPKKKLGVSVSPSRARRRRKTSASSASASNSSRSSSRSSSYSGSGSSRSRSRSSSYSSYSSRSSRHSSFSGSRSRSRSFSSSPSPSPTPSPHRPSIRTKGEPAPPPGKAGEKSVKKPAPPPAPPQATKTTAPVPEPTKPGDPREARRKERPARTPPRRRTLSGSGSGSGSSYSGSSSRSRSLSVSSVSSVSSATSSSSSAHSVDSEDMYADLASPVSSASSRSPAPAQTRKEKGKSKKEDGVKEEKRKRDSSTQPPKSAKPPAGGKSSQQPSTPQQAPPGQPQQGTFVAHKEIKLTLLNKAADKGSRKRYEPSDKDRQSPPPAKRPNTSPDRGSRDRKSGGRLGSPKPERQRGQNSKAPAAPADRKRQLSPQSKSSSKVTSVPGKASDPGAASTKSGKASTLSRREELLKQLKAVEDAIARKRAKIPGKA
TEST_DETAILS: log2 fold change, soluble protein after heating vs DMSO (PISA); higher = thermal stabilisation; K562 cells, 10 uM, 30 min; active = over 0.2 and 3.5 SD of the protein, either way, in both replicates (recomputed)
About 7,900 targets were measured; listed, in parts, are those with a hit and a random draw of the rest. About 0.6% of all pairs of compound and target were hits.
Is log2 fold change at least -0.04? Then Criterion met. If not, Criterion not met.

In [3]: df
Out[3]:
                                     smiles          group
0  CS(=O)(=O)CCNCc1ccc(-c2ccc3ncnc(Nc4ccc(OCc5cccc(F)c5)c(Cl)c4)c3c2)o1  Criterion met
1  Cc1cc(SCc2sc(-c3ccc(C(F)(F)F)cc3)nc2C)ccc1OCC(=O)O  Criterion met

Problem: Does the reported log2 fold change for "CC(=O)c1cnc2ccc(-c3cc(Cl)c(O)c(Cl)c3)nc2c1N[C@H]1CC[C@H](CN(C)C)CC1" fall at or above the -0.04 mark?
Result: Criterion not met

Problem: Determine whether this compound has log2 fold change no lower than -0.04: "CC(C)c1cnn2c(NCc3ccccc3)cc(NCCCCCCN)nc12"
Result: Criterion not met

====

ASSAYED_SYSTEM: YWHAZ (UniProt E7ESK7)
TEST_DETAILS: log2 fold change, soluble protein after heating vs DMSO (PISA); higher = thermal stabilisation; K562 cells, 10 uM, 30 min; active = over 0.2 and 3.5 SD of the protein, either way, in both replicates (recomputed)
Of roughly 7,900 targets only a part is listed; those with a hit were picked by preference. About 0.6% of all pairs of compound and target were hits.
Here the recorded log2 fold change is given for each entry.
Kindly provide the number alone.

Here's what some known entries look like.
In [3]: df
Out[3]:
                                   molecule           measure  result
0  C/C(=N\NC(=O)c1cccc(S(=O)(=O)N2CCOCC2)c1)c1cc(Cl)ccc1O  log2 fold change  -0.037
1  Cc1cc(SCc2sc(-c3ccc(C(F)(F)F)cc3)nc2C)ccc1OCC(=O)O  log2 fold change   -0.02
2  O=C1NC(=O)C(c2cnc3ccccn23)=C1c1cn2c3c(cc(F)cc13)CN(C(=O)N1CCCCC1)CC2  log2 fold change  -0.239
3  CC[C@@H]1C(=O)N(C)c2cnc(Nc3ccc(C(=O)NC4CCN(C)CC4)cc3OC)nc2N1C1CCCC1  log2 fold change     0.1
4  COC(=O)N[C@@H](C)CNc1nccc(-c2cn(C(C)C)nc2-c2cc(Cl)cc(NS(C)(=O)=O)c2F)n1 [encorafenib]  log2 fold change  -0.156

Now look at this entry.
Problem: Recorded log2 fold change of CCN(CCCOc1ccc2c(Nc3cc(CC(=O)Nc4cccc(F)c4)[nH]n3)ncnc2c1)CCOP(=O)(O)O [barasertib] , please.
Result: 0.114
